# target: Hsp90 in C. albicans (SC5314) lysate (Candida albicans, UniProt P46598)
# Construct: endogenous in cells; host or cells: C. albicans SC5314 whole-cell lysate
# Sequence (P46598 whole entry): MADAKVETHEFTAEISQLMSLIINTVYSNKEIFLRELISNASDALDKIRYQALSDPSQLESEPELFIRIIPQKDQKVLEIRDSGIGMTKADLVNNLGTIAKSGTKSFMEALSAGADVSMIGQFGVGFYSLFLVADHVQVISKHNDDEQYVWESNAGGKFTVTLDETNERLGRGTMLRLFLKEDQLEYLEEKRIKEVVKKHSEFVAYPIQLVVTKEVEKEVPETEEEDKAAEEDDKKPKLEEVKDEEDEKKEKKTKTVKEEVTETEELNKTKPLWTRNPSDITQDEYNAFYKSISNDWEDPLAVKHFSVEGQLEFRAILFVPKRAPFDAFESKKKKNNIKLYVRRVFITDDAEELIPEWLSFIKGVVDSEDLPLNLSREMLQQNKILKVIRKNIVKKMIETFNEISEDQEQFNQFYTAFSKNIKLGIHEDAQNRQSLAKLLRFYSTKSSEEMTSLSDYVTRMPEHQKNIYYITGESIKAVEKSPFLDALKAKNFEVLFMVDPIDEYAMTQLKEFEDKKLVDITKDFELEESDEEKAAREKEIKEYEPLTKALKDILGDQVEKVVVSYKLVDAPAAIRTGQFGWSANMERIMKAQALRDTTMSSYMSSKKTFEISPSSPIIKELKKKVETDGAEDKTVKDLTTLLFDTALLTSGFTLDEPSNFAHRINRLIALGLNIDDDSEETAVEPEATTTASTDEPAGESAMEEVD
# experiment: biochemical
# Assay type: binding
# experimental.context: SC5314 lysate, 2 uM
Below, each entry is listed alongside its reported FP signal (raw).

# annotated cases, reported FP signal (raw) shown
COc1ccc(CON=C2C=CC=CC3OC3CC(C)OC(=O)c3c(O)cc(O)cc3C2)cc1 (mixture of isomers)    0
CC1(C)CC(=O)c2c(C(F)(F)F)nn(-c3ccc(C(N)=O)c(N[C@H]4CC[C@H](O)CC4)c3)c2C1    1
CCNC(=O)c1noc(-c2cc(C(C)C)c(O)cc2O)c1-c1ccc(CN2CCOCC2)cc1 [AUY922, reference compound]    2

Entry COC1=C2C[C@@H](C)C[C@H](OC)[C@H](O)[C@@H](C)/C=C(\C)[C@H](OC(N)=O)[C@@H](OC)/C=C\C=C(/C)C(=O)NC(=CC1=O)C2=O [geldanamycin, reference compound] has what FP signal (raw)?
-6
